- Tested on: NOMO1
- Assay Text: cell viability relative to DMSO control; higher = less cytotoxic
- Run Conditions: RPMI 5 mM glucose + 10% dialyzed FBS; 48 h; 0.569 µM
Measured Attribute: cell viability (%)
Could you give me the number in %? Just the number is fine.

Here's what some known entries look like.
CC(C)Cn1cnc2c(N)nc3ccccc3c21 | 115
CCC(C1CCC(C)C(O1)C(C)C(O)C(C)C(=O)C(CC)C2OC\3(O[C@]4(CC[C@@](C)(O4)C5CC[C@@](O)(CC)C(C)O5)C(O)\C=C3)C(C)CC2C)C([O-])=O (stereo partly drawn) | 102

Now look at this entry.
Record request: cell viability value, item "CC(C)n1cnc2c(NCCc3ccc(O)cc3)nc(-c3csc4ccccc34)nc21" 125
